A collection of compounds and their measured IC50
Target: MMP-1 (Homo sapiens, UniProt P03956)
Sequence (P03956 100-269 limits assumed): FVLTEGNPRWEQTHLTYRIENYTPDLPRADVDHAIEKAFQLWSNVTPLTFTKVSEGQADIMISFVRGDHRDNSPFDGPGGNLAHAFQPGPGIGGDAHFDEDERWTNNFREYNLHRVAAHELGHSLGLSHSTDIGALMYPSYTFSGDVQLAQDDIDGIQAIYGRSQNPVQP

Record C[C@H](C(=O)NO)N1CC[C@@](C)(c2ccccc2)C1=O , field IC50: 1.54 µM

Record C[C@H](C(=O)NO)N1CC[C@](C)(c2ccc(C(F)(F)F)cc2)C1=O , field IC50: > 100 µM

Now look at this one.
Record C[C@H](C(=O)NO)N1CC[C@@](C)(c2ccc(-c3ccccc3)cc2)C1=O , field IC50: 11.5 µM
